Origin of the recorded values: paper PMC6648666

- MEASUREMENT TARGET: T1, HqRRM2 (hnRNP H qRRM2) (human, UniProt P31943 94-194)
- T1 sequence: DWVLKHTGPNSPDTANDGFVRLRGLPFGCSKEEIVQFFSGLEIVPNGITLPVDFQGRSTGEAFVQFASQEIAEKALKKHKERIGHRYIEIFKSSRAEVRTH
- ASSAY COMMENT: ITC
ATTRIBUTE MEASURED: Kd (nM)
Provide the reading as a plain figure in nM.

Problem: What value of measured Kd is listed for AGGGU (ssRNA) ?
Result: 2200
